Kindly state TDCC EC50 (EJM cells) for each of the entries shown.
Target: T1, human BCMA on BCMA expressing cell lines (human, UniProt Q02223 1-184)
T1 sequence: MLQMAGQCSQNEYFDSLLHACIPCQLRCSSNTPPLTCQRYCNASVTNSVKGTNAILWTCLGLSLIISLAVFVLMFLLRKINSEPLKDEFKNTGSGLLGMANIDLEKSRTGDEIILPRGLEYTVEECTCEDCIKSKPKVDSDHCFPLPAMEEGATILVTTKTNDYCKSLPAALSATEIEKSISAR
Test: cell-based or functional assay
Answers are plain numbers, in pM.

// solved cases for TDCC EC50 (EJM cells) follow
# binder, reportedProperty, resultValue
measured = [
    ("BCMA targeting trispecific protein 01A03 (other, not shown: large carriers; small tags and cut ends, trispecific) VHH: EVQLVESGGGLVQPGRSLTLSCAASTNIFSISPGGWYRQAPGKQRELVAAIHGSSTLYADSVKGRFTISRDNAKNSIYLQMNSLRPEDTALYYCNKVPWGDYHPRNVYWGQGTQVTVSS", "TDCC EC50 (EJM cells)", 46.1),
    ("BCMA targeting trispecific protein 01C02 (other, trispecific; not shown: The C-terminal 6xHis tag is left out because it follows these missing domains) VHH: EVQLVESGGGLVQPGRSLTLSCAASTNIESISPMGWYRQAPGKQRELVAAIHGNSTLYADSVKGRFTISRDNAKNSIYLQMNSLRPEDTALYYCNKVPWGRYHPRNVYWGQGTQVTVSS", "TDCC EC50 (EJM cells)", 37.3),
    ("BCMA targeting trispecific protein 02F06 (other, not shown: large carriers; small tags and cut ends, trispecific) VHH: EVQLVESGGGLVQPGRSLTLSCAASTNIFSITPMGWYRQAPGKQRELVAAIHGESTLYADSVKGRFTISRDNAKNSIYLQMNSLRPEDTALYYCNKVPWGRYHPRNVYWGQGTQVTVSS", "TDCC EC50 (EJM cells)", 19.3),
]

Moving on to the next binder.
Task item: I have this binder here, BCMA targeting trispecific protein 02G06 (other, not shown: large carriers; small tags and cut ends, trispecific) VHH: EVQLVESGGGLVQPGRSLTLSCAASTNIFSGSPMGWYRQAPGKQRELVAAIHGNSTLYADSVKGRFTISRDNAKNSIYLQMNSLRPEDTALYYCNKVPWGDYHPGNVYWGQGTQVTVSS , and I need its recorded TDCC EC50 (EJM cells).
Reply: 3.39
